# BAF3-FGFR1 (MIN IL3) pIC50 per record follows
testedTarget: Ba/F3-FGFR1-transfected cells (Homo sapiens)
Construct: BAF3-FGFR1 (MIN IL3) pIC50; other: minus IL3
Sequence (P11362 whole entry, change not shown): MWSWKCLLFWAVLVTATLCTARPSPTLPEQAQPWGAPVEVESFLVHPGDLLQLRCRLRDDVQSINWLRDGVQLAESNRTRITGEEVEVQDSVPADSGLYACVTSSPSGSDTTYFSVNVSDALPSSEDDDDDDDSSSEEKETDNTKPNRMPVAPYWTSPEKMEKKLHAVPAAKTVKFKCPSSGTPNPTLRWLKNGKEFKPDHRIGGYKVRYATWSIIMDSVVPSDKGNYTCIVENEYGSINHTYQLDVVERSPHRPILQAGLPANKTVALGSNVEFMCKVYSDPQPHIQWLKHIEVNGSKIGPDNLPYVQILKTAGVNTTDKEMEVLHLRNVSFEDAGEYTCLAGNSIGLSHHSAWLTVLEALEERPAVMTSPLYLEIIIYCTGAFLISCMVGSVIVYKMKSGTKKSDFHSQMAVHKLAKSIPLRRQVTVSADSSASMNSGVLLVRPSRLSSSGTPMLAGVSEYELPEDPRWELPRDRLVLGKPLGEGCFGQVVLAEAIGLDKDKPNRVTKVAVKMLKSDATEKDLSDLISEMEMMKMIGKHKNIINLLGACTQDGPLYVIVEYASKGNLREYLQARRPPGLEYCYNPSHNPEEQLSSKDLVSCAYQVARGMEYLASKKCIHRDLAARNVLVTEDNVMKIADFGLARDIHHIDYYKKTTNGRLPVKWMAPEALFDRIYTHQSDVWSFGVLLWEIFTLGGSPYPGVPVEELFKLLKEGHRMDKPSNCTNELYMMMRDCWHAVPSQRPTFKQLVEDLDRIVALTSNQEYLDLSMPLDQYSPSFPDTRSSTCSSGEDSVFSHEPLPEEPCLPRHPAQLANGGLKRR
testMethodNotes: Ba/F3-FGFR1 (minus IL3) cellular proliferation assay, Alamar Blue
Assay type: cell-based
Protocol: Ba/F3-FGFR1 (Minus IL3 or Plus IL3) (Cellular Proliferation Assay) In a 384 well plate, 100 nl of compound dilution in DMSO was sprayed before adding 50 μl cell culture medium (phenol red free RPMI-1640, 10% FBS, 2 mM L-Glutamine and 50 μg/ml Gentamycin) containing 20000 cells per well of Ba/F3-FGFR1-transfected cells. Cells were put in an incubator at 37° C. and 5% CO2. […]
Output: the number by itself.

Here's what some known entries look like.
Q: Observed BAF3-FGFR1 (MIN IL3) pIC50 on Ba/F3-FGFR1-transfected cells (Homo sapiens) for COc1cc(/N=c2\ccc3ncc(-c4cnn(C)c4)nc3n2CCNC(C)C)c(F)c(OC)c1 , please.
A: 7.78

Q: Param readout = BAF3-FGFR1 (MIN IL3) pIC50; param system = Ba/F3-FGFR1-transfected cells (Homo sapiens); param query = COc1cc(OC)c(F)c(N(CCN(C2COC2)C2COC2)c2ccc3ncc(-c4cnn(C)c4)nc3n2)c1F (single isomer, unassigned) ; response: value
A: 7.82

Q: Value wanted: BAF3-FGFR1 (MIN IL3) pIC50 (Ba/F3-FGFR1-transfected cells (Homo sapiens)) of entry COc1cc(OC)c(F)c(N(c2ccc3ncc(-c4cnn(C)c4)nc3n2)C(CO)COC(C)C)c1 (single isomer, unassigned)
A: 5.55

Q: Item: COc1cc(OC)c(F)c(N(CC#N)c2ccc3ncc(-c4cnn(C)c4)nc3n2)c1F Test system: Ba/F3-FGFR1-transfected cells (Homo sapiens) Read-out: BAF3-FGFR1 (MIN IL3) pIC50 Value: ?
A: 8.00

Q: Request body: readout BAF3-FGFR1 (MIN IL3) pIC50, system Ba/F3-FGFR1-transfected cells (Homo sapiens), query COc1cc(/N=c2\ccc3ncc(-c4cnn(C)c4)nc3n2CCN2CCCC2=O)cc(OC)c1 . Return the value.
A: 6.80

Q: Can you look up BAF3-FGFR1 (MIN IL3) pIC50 on Ba/F3-FGFR1-transfected cells (Homo sapiens) for COc1cc(OC)c(F)c(N(Cc2nc(OC)cc(OC)n2)c2ccc3ncc(-c4cnn(C)c4)nc3n2)c1 ?
A: 6.32

Q: Write down the reported BAF3-FGFR1 (MIN IL3) pIC50 of COc1cc(OC)cc(N(CC(O)C(F)(F)F)c2ccc3ncc(-c4cnn(C)c4)nc3n2)c1 (single isomer, unassigned) [Compound 33] , test system: Ba/F3-FGFR1-transfected cells (Homo sapiens).
A: 7.60

Q: Please provide the recorded BAF3-FGFR1 (MIN IL3) pIC50 for COc1cc(OC)c(F)c(N(CCN)c2ccc3ncc(-c4cnn(C)c4)nc3n2)c1 , tested on Ba/F3-FGFR1-transfected cells (Homo sapiens).
A: 7.48

Next:
Q: Hi! What's the reported BAF3-FGFR1 (MIN IL3) pIC50 for COc1cc(/N=c2\ccc3ncc(-c4cnn(C)c4)nc3n2CC2CCC(=O)N2CCO)c(F)c(OC)c1 (centres unmarked) [Compound 247] on Ba/F3-FGFR1-transfected cells (Homo sapiens)?
A: 7.51

Q: BAF3-FGFR1 (MIN IL3) pIC50 of CNCCn1ccnc1CN(c1ccc2ncc(-c3cnn(C)c3)nc2n1)c1cc(OC)cc(OC)c1F on Ba/F3-FGFR1-transfected cells (Homo sapiens)?
A: 6.66

Q: Request body: readout BAF3-FGFR1 (MIN IL3) pIC50, system Ba/F3-FGFR1-transfected cells (Homo sapiens), query COc1cc(OC)c(F)c(N(Cc2nnc(NCCO)o2)c2ccc3ncc(-c4cnn(C)c4)nc3n2)c1 . Return the value.
A: 5.18

Every entry's value here was drawn from patent US9309242B2.
